Known EC50 of a selection of compounds
subjectOfTest: Peroxisome proliferator-activated receptor gamma (Homo sapiens, UniProt P37231)
Sequence (P37231 whole entry): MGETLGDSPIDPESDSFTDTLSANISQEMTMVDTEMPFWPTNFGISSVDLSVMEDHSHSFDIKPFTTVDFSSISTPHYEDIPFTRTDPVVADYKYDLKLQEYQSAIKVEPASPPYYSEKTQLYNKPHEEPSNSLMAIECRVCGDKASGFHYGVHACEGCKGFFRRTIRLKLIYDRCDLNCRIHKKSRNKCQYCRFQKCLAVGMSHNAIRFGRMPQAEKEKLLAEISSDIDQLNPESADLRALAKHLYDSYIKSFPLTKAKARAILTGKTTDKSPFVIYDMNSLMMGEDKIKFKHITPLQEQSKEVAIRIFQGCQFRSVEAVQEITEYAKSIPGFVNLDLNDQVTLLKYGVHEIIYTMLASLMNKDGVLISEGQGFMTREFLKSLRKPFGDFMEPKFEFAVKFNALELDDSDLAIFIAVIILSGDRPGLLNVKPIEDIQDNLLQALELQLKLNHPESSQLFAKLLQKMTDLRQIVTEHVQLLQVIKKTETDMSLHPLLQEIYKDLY
assayText: Transactivation of human PPARgamma1 expressed in CHO-K1 cells co-expressing RXRalpha and PPRE after 1 day by luciferase reporter gene assay

| compound | outputUnit | valueOperator | EC50 |
| --- | --- | --- | --- |
| CCCCCS(=O)(=O)NC(=O)/C=C/c1ccc(OCCOC)cc1Oc1ccc(C(F)(F)F)cn1 | nM | > | 10000 |
| CCCCCS(=O)(=O)NC(=O)/C=C/c1ccc(OCCOC)cc1Oc1ncccc1Cl | nM | > | 10000 |
| CCCCCS(=O)(=O)NC(=O)/C=C/c1ccc(OCCOC)cc1Oc1ncc(N)cc1C | nM | > | 10000 |
| CCCCCS(=O)(=O)NC(=O)/C=C/c1ccc(OCCOC)cc1Oc1ncc(NC(C)=O)cc1C | nM | > | 10000 |
| COCCCS(=O)(=O)NC(=O)CCc1ccc(OCCOC)cc1Oc1ncc(C(F)(F)F)cc1Cl | nM | = | 11 |
| CCCCNC(=O)OCCCc1ccc(OCCOC)cc1Oc1ncc(C(F)(F)F)cc1Cl | nM | = | 48 |
| COCCOc1ccc(CCC(=O)NS(=O)(=O)c2ccccc2)c(Oc2ncc(C(F)(F)F)cc2Cl)c1 | nM | = | 32 |

* * *

Known microsomal CLint at 1 µM of a selection of compounds
assayText: Clearance in human liver microsomes at 1 umol/L after 20 mins by HPLC analysis in presence of NADPH
Format: ADME, Microsome
conditions: read-out: CLH

| compound | outputUnit | valueOperator | microsomal CLint at 1 µM |
| --- | --- | --- | --- |
| CCCCCS(=O)(=O)NC(=O)/C=C/c1ccc(OCCCOC)cc1Oc1ncc(C(F)(F)F)cc1Cl | µL/min/mg | = | 16 |
| CCCCCS(=O)(=O)NC(=O)CCc1ccccc1Oc1ncc(C(F)(F)F)cc1Cl | µL/min/mg | = | 78 |
| CCCCCS(=O)(=O)NC(=O)/C=C/c1ccc(OCCOC)cc1Oc1ncccc1Cl | µL/min/mg | = | 18 |
| CCCCCS(=O)(=O)NC(=O)/C=C/c1ccc(OCCOC)cc1Oc1ncc(Cl)cc1Cl | µL/min/mg | = | 9 |
| CCCCCS(=O)(=O)NC(=O)OCCCc1ccc(OCCOC)cc1Oc1ncc(C(F)(F)F)cc1Cl | µL/min/mg | = | 90 |
| CCCCCS(=O)(=O)NC(=O)C(C)(C)Cc1ccc(OCCOC)cc1Oc1ncc(C(F)(F)F)cc1Cl | µL/min/mg | = | 113 |
| CCCCCS(=O)(=O)NC(=O)CCc1ccc(OCCN2CCCC2=O)cc1Oc1ncc(C(F)(F)F)cc1Cl | µL/min/mg | = | 78 |
| CCCCCS(=O)(=O)NC(=O)/C=C/c1ccc(OCCO)cc1Oc1ncc(C(F)(F)F)cc1Cl | µL/min/mg | < | 1 |
| CCCCCS(=O)(=O)NC(=O)/C=C/c1ccc(OC(C)C)cc1Oc1ncc(C(F)(F)F)cc1Cl | µL/min/mg | = | 19 |
| CCCCCS(=O)(=O)NC(=O)C(C)Cc1ccc(OCCOC)cc1Oc1ncc(C(F)(F)F)cc1Cl (stereo not drawn) | µL/min/mg | = | 128 |
| COCCOc1ccc(CCC(=O)NS(=O)(=O)c2ccc(Cl)cc2)c(Oc2ncc(C(F)(F)F)cc2Cl)c1 | µL/min/mg | = | 67 |
| CCCCCS(=O)(=O)NC(=O)/C=C/c1ccc(OCCC(C)=O)cc1Oc1ncc(C(F)(F)F)cc1Cl | µL/min/mg | = | 30 |
| COCCCS(=O)(=O)NC(=O)CCc1ccc(OCCOC)cc1Oc1ncc(C(F)(F)F)cc1Cl | µL/min/mg | = | 7 |
| CCCCCS(=O)(=O)NC(=O)CCc1ccc(OC(C)C)cc1Oc1ncc(C(F)(F)F)cc1Cl | µL/min/mg | = | 57 |
| CCCCCS(=O)(=O)NC(=O)C(Cc1ccc(OCCOC)cc1Oc1ncc(C(F)(F)F)cc1Cl)OC (stereo not drawn) | µL/min/mg | = | 72 |
| CCCCCS(=O)(=O)NC(=O)/C(C)=C/c1ccc(OCCOC)cc1Oc1ncc(C(F)(F)F)cc1Cl | µL/min/mg | = | 20 |
| CCCCCS(=O)(=O)NCCCc1ccc(OCCOC)cc1Oc1ncc(C(F)(F)F)cc1Cl | µL/min/mg | = | 210 |
| CCCCCS(=O)(=O)NC(=O)/C=C/c1ccc(OCCOC2CC2)cc1Oc1ncc(C(F)(F)F)cc1Cl | µL/min/mg | = | 25 |
| CCCCCS(=O)(=O)NC(=O)CCc1ccc(OCCOC)cc1Oc1ncc(C(F)(F)F)cc1Cl | µL/min/mg | = | 77 |
| CCCCCS(=O)(=O)NC(=O)CCc1ccc(OCC(=O)N(CC)CC)cc1Oc1ncc(C(F)(F)F)cc1Cl | µL/min/mg | = | 95 |
| CCCCCS(=O)(=O)NC(=O)/C=C/c1ccc(OCCOC)cc1Oc1ccc(C(F)(F)F)cn1 | µL/min/mg | < | 1 |
| CCCCCS(=O)(=O)NC(=O)/C=C/c1ccc(OCCCC#N)cc1Oc1ncc(C(F)(F)F)cc1Cl | µL/min/mg | = | 23 |
| CCCCCS(=O)(=O)NC(=O)/C=C/c1ccc(OCCOC)cc1Oc1ncc(C(F)(F)F)cc1Cl | µL/min/mg | = | 9 |
